Reference for the values: PubChem BioAssay (NCI)

Tested on: ACHN renal
Test: NCI-60 one-dose screen, 48 h
Settings: 10 µM unless noted
Experimental: Growth inhibition of the ACHN human tumor cell line is measured as a screen for anti-cancer activity. Cells are grown in 96 well plates and exposed to the test compound for 48 hours. Compounds are tested at a single concentration, which is 10^-5 M for most compounds. The reported endpoint is percent growth (GI% or GIPRCNT), where numbers from 0 - 100% represent growth inhibition, and numbers from -100% - 0 represent cell death. For example, a value of 40 represents 60% growth inhibition. […]
The panel holds about 83,000 compounds, 20% with a hit somewhere; the sample as a whole holds those more often. The source made the active and inactive calls. How the source made its calls: active means growth percent below 10; inactive means the rest.
Permitted responses: Yes = active, No = inactive

compound	assayedSystem	assignedCategory
CCCCCCC/C(=N\N=C(N)N)c1ccc(O)cc1	ACHN renal	No

Any idea what this test logged for COc1ccc2c(c1)C(=O)/C(=C/c1cccc(OCC(=O)c3ccccc3)c1)CC2 ?
No

Any idea what this test logged for COc1cc2c(c(OC)c1OC)-c1ccc(NN(C(=O)c3ccccc3)C(=O)c3ccccc3)c(=O)cc1[C@@H](NC(C)=O)CC2 (tested in a mixture with another compound) ?
No

Any idea what this test logged for Cn1c(=O)c2nc(SCc3ccccc3)n(C)c2n(C)c1=O ?
No

Any idea what this test logged for O=C(Cn1ccnc1)NC(c1ccccc1)c1ccccc1 ?
No

Any idea what this test logged for COc1cc(C2CC(c3ccc(C)cc3)=NN2C(C)=O)ccc1Oc1ccnc2cc(Cl)ccc12 (stereo not drawn) ?
No

Any idea what this test logged for ClC1=C(Cl)C(Cl)=C(Cl)C1=Cc1ccc(Cl)cc1 ?
No

Any idea what this test logged for COc1cc2c(-c3nc4cc(Cl)c(F)cc4s3)cc(=O)oc2c(C)c1OC ?
Yes

----------
Test system: NCI-H522 lung
Experiment: NCI-60 one-dose screen, 48 h (100 = growth as untreated, 0 = no growth, -100 = all killed)
Details: 10 µM unless noted
Compounds without any hit were thinned out: in the full panel of roughly 83,000, 20% have a hit.
growth values, listed per item
The response must be a number in % with no trailing unit.

Reported growth for O=[N+]([O-])c1ccc(N/N=C\c2ccccc2[N+](=O)[O-])nc1 : what is it?
97.5

----------
growth values, listed per item
Tested on: SK-OV-3 ovarian
Assay: NCI-60 one-dose screen, 48 h (100 = growth as untreated, 0 = no growth, -100 = all killed)
Details: 10 µM unless noted
This is part of a sample that, as a whole, favours compounds with a hit. Of some 83,000 tested, about 20% had one in any assay.
The response must be a number in % with no trailing unit.

Study these solved cases before continuing.
compound	assayedSystem	unitOfMeasurement	growth
ClC1=C(Cl)C(Cl)=C(Cl)C1=C/C=C/c1ccccc1	SK-OV-3 ovarian	%	-22
N#CCNc1ccccc1N	SK-OV-3 ovarian	%	84.5
N#Cc1c2ccccc2c2n1-c1ccccc1OC(c1ccccc1)C2=O (configuration not stated)	SK-OV-3 ovarian	%	65.4
NC(=O)N/N=C/c1ccc(Br)o1	SK-OV-3 ovarian	%	101

Reported growth for O=c1c(O)cccn1CCCNCCCN(CCCn1cccc(O)c1=O)CCCn1cccc(O)c1=O : what is it?
97.3

Reported growth for CCC(C)CC(CC)NCCN1CCN(C(CC)CC(C)CC)C1=S (configuration not stated) : what is it?
56.2

Reported growth for O=C(OCCBr)c1ccc(Cl)c([N+](=O)[O-])c1 : what is it?
79.4

Reported growth for Oc1ccc(Cc2ccc(O)c(C3CC(c4ccc(Cl)cc4)=NN3)c2)cc1C1CC(c2ccc(Cl)cc2)=NN1 (configuration not stated) : what is it?
50.5

Reported growth for COc1cc(C2CC(c3ccc(C)cc3)=NN2C(C)=O)ccc1Oc1ccnc2cc(Cl)ccc12 (configuration not stated) : what is it?
13.5

Reported growth for COC1=CC(c2ccc[nH]2)=N/C1=C\c1[nH]c(C)c(C(=O)CCC(=O)Oc2ccc3c(c2)CCC2C3CC[C@]3(C)C(=O)CC[C@@H]23)c1C (some centres not stated) : what is it?
85.5

Reported growth for Cn1cc(-c2csc(-c3cn(C)c4ncccc34)n2)c2cc(F)cnc21 : what is it?
107

Reported growth for CO[C@H]1/C=C/O[C@@]2(C)Oc3c(C)c(O)c4c(O)c(c(/C=N/N5CCN(C)CC5)c(O)c4c3C2=O)NC(=O)/C(C)=C\C=C\C(C)[C@H](O)[C@@H](C)[C@@H](O)[C@@H](C)[C@@H](OC(C)=O)[C@@H]1C (some centres not stated) : what is it?
113

----------
Test system: T-47D breast
Test: NCI-60 one-dose screen, 48 h (100 = growth as untreated, 0 = no growth, -100 = all killed)
Settings: 10 µM unless noted
Compounds without any hit were thinned out: in the full panel of roughly 83,000, 20% have a hit.
propertyMeasured: growth (%)
The response must be a number in % with no trailing unit.

Study these solved cases before continuing.
molecule	propertyMeasured	unitOfMeasurement	numericResult
COc1ccc(C2CC(c3ccc(OC)c(OC)c3)=NN2C(=O)c2cc(OC)c(OC)c(OC)c2)c(OC)c1 (centres undefined)	growth	%	82
COc1cc(/C=C/C(=O)c2ccc(F)cc2)ccc1OCCCCCOc1cc2c(cc1OC)C(=O)N1CCCC1C=N2 (centres undefined)	growth	%	-4.98
CCC(C)CC(C)C(=O)c1c(O)ccn(OC)c1=O (centres undefined)	growth	%	82.9

Moving on to another molecule below.
Reported growth for CCn1c2c(c3ccccc31)SC1c3cccn3CCN1C2=S (centres undefined) : what is it?
41.9

----------
Tested on: A549/ATCC NSCLC
Assay: NCI-60 one-dose screen, 48 h (100 = growth as untreated, 0 = no growth, -100 = all killed)
Details: 10 µM unless noted
Compounds without any hit were thinned out: in the full panel of roughly 83,000, 20% have a hit. The source made the active and inactive calls. The calls were made as follows: active = growth percent below 10; inactive = the rest.
growth values, listed per item

Study these solved cases before continuing.
molecule	growth
COc1ccccc1[C@H]1c2[nH]c3ccccc3c2C[C@H]2C(=O)N(CCCCCCC(=O)NO)CC(=O)N12	76.5% (inactive)
O=C(Nc1ccc(Cl)cc1)c1cc2c(cc1O)[nH]c1ccccc12	30% (inactive)
CCOC(=O)C(Cc1ccccc1)(C(=O)OCC)C(Br)C(=O)c1ccccc1 (stereo unspecified)	80.2% (inactive)
O=C(/C=C/c1ccc(Cl)cc1)c1ccccc1	88.9% (inactive)
O=C1CC(C(F)(F)F)=NN1C(=O)c1nn(-c2ccc(Cl)cc2)cc1O	91.2% (inactive)
Cc1cc(C)n(C(=O)c2nn(-c3ccc(Cl)cc3)cc2O)n1	11.6% (inactive)

Reported growth for Nc1ccc(S(=O)(=O)Nc2ncccn2)cc1 : what is it?
100% (inactive)

Reported growth for Cc1ccccc1-c1cc(Cc2ccccc2O)c(=O)[nH]n1 : what is it?
107% (inactive)

Reported growth for N#Cc1cnc2cc(OC[C@H](O)CO)c(NC(=O)CC3CSSC3)cc2c1Nc1ccc(OCc2cccc(F)c2)c(Cl)c1 : what is it?
-69.3% (active)

----------
System: HOP-62 NSCLC
Assay: NCI-60 one-dose screen, 48 h
Conditions: 10 µM unless noted
This is part of a sample that, as a whole, favours compounds with a hit. Of some 83,000 tested, about 20% had one in any assay. Calls of active or inactive are those of the source. The calls were made as follows: active = growth percent below 10; inactive = the rest.
Permitted responses: active, inactive

As a guide, the following entries are already answered.
compound	assayedSystem	assignedCategory
O=c1cc(-c2cccnc2)oc2c1ccc1ccccc12	HOP-62 NSCLC	inactive
COc1c(C)c2c(c(O)c1C/C=C(\C)CCC(=O)OCCN1CCOCC1)C(=O)OC2	HOP-62 NSCLC	inactive
COc1ccccc1[C@H]1c2[nH]c3ccccc3c2C[C@H]2C(=O)N(CCCCCCC(=O)NO)CC(=O)N12	HOP-62 NSCLC	inactive

Any idea what this test logged for COc1cc(/C=C/C(=O)c2c(-c3ccc(F)cc3)nc3sc(C)nn23)cc(OC)c1OC ?
active

Any idea what this test logged for O=C(CCc1nnc2sc(Cc3ccccc3Cl)nn12)c1nc2ccccc2[nH]1 ?
inactive

Any idea what this test logged for O=C(Nc1cccc([N+](=O)[O-])c1)c1cccc(C(=O)Nc2cccc([N+](=O)[O-])c2)c1 ?
inactive

Any idea what this test logged for Cc1ccc(NC(=O)CSc2nnc3n(Cc4ccccc4)c(=O)c4c(C)c(C(N)=O)sc4n23)cc1 ?
active

Any idea what this test logged for COc1cc2c(cc1OC)C1CCN3C(=O)CCC3N1CC2 (centres undefined) ?
inactive

Any idea what this test logged for O=C(O)C(=O)O ?
inactive

Any idea what this test logged for CN(C)CCCN1c2nc3ccccc3cc2Sc2cc3ccccc3nc21 ?
inactive

Any idea what this test logged for COc1ccc(C(=O)C(C)Br)cc1OC (centres undefined) ?
inactive

Any idea what this test logged for COc1cc(/C=C/C(=O)N2CCN(C(=O)/C=C/c3ccccc3)CC2)cc(OC)c1OC ?
inactive

Any idea what this test logged for CCCCC(C#N)C(N)=O (centres undefined) ?
inactive

Any idea what this test logged for CC[C@@H]1OC(=O)[C@H](C)[C@@H](O[C@H]2C[C@@](C)(OC)[C@@H](O)[C@H](C)O2)[C@H](C)[C@@H](O[C@@H]2O[C@H](C)C[C@H](N(C)C)[C@H]2O)[C@](C)(O)C[C@@H](C)[C@@H]2N[C@@H](COCCOC)O[C@H]([C@H]2C)[C@]1(C)O ?
inactive
